Test system: wheat
Test: Damage to wheat (growth inhibition) by seed treatment (pot test)
Conditions: 2 mg in DMSO applied to wheat seeds 1 g, 14 to 28 days after seeding, larger index = smaller damage
measurement.name: Damage index Growth inhibition

CC1(C)CC[C@H](Cc2ccc(Cl)cc2)[C@@]1(O)Cn1cncn1 (racemic) [Compound (1), reference compound]	0 (80% or more)
CCOC(=O)[C@]1(C)CC[C@@H](Cc2ccc(Cl)cc2)[C@]1(O)Cn1cncn1 (racemic) [Compound I-3]	1 (60% or more and less than 80%)
CCCOC(=O)[C@]1(C)CC[C@@H](Cc2ccc(Cl)cc2)[C@]1(O)Cn1cncn1 (racemic) [Compound I-6]	3 (20% or more and less than 40%)
C#CCOC(=O)[C@]1(C)CC[C@@H](Cc2ccc(Cl)cc2)[C@]1(O)Cn1cncn1 (racemic) [Compound I-5]	1 (60% or more and less than 80%)
